pKi: −log10 of the molar value.
Notes on pKi obtained with ROCK I (AA 6-553) (Homo sapiens, UniProt Q13464).
Sequence (Q13464 6-553, species assumed): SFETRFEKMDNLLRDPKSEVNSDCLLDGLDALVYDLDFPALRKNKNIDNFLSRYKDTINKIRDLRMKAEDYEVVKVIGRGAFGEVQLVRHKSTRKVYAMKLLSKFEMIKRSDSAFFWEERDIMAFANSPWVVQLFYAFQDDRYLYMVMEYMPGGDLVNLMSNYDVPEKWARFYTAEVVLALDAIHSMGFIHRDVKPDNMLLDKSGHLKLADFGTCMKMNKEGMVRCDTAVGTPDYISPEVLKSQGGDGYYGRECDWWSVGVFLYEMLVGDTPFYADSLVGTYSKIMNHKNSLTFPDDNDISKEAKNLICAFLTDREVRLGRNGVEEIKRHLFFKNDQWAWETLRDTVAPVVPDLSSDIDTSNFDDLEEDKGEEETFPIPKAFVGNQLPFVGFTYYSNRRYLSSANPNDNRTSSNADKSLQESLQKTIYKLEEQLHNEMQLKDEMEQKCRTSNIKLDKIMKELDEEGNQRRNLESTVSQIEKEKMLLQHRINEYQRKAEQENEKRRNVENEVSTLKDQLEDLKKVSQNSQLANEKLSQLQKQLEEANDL

Solved entries:
>>> result("O=C(Cc1ccccc1F)Nc1nc(-c2ccnc(F)c2)cs1")
"> 7.00"
>>> result("CNc1cc(-c2csc(NC(=O)Cc3ccccc3Cl)n2)ccn1")
"6.00 to 7.00"
>>> result("O=C(Cc1ccccc1Cl)Nc1nc(-c2ccnc(Cl)c2)cs1")
"6.00 to 7.00"
>>> result("Cc1cc(-c2csc(NC(=O)Cc3cccc(O)c3)n2)ccn1")
"> 7.00"

Consider the record given below.
Query: Using ROCK I (AA 6-553) (Homo sapiens, UniProt Q13464) as the test system, report measured pKi of Cc1cc(-c2csc(NC(=O)Cc3ccccc3)n2)ccn1 .
Result: 6.00 to 7.00

---

Notes on Ki obtained with CYP3A4 (human liver microsome) (Homo sapiens).
Sequence (P08684 whole entry): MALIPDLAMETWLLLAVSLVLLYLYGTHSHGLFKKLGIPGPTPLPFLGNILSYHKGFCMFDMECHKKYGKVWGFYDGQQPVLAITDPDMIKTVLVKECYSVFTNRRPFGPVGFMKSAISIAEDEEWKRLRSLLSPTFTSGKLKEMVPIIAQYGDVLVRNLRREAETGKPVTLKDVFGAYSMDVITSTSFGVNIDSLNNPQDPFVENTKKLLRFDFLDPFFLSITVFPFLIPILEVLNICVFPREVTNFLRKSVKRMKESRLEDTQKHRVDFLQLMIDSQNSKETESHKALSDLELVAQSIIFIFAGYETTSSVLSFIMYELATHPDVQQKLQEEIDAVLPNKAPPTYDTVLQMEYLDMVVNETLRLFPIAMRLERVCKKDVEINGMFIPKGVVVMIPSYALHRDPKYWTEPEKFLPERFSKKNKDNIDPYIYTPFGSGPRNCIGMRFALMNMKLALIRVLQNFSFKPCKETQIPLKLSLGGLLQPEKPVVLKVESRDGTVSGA

>>> result("O=C(Cc1cc2c(cc1Cl)OCO2)Nc1cc(-c2ccnc(Cl)c2)cs1 [Compound 105]")
"1 to 10 µM"
>>> result("O=C(Cc1cccc(OCCCN2CCNCC2)c1)Nc1cc(-c2ccnc(Cl)c2)cs1 [Compound 102]")
"> 10 µM"

Query: Using CYP3A4 (human liver microsome) (Homo sapiens) as the test system, report measured Ki of CN1CCN(CCCOc2cccc(CC(=O)Nc3cc(-c4ccnc(F)c4)cs3)c2)CC1 [Compound 74] .
Result: > 10 µM

---

Notes on pKi obtained with CYP1A2 (Homo sapiens, UniProt P05177).
Sequence (P05177 whole entry): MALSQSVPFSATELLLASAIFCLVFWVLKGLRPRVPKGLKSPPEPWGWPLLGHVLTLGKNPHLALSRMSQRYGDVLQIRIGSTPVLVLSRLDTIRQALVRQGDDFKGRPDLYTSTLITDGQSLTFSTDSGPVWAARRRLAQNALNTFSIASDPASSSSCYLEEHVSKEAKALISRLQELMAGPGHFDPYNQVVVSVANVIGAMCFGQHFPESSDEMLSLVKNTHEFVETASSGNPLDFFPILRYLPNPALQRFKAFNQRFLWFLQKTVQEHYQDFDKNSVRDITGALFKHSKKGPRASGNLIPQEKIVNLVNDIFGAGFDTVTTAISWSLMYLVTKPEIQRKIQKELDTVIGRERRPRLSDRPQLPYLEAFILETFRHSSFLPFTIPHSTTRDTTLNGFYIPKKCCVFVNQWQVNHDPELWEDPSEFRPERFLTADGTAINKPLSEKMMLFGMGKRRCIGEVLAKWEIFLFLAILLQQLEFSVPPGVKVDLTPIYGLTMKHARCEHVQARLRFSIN
pKi: −log10 of the molar value.

Solved entries:
>>> result("Cc1cc(-c2csc(NC(=O)Cc3cccc(OCCCN4CCNCC4)c3)c2)ccn1")
"< 5.00"
>>> result("CN1CCN(CCCOc2cccc(CC(=O)Nc3cc(-c4ccnc(F)c4)cs3)c2)CC1")
"< 5.00"
>>> result("COc1cccc(CC(=O)Nc2cc(-c3ccnc(N)c3)cs2)c1")
"5.00 to 6.00"
>>> result("COc1cccc(CC(=O)Nc2cc(-c3ccnc(F)c3)cs2)c1")
"< 5.00"
>>> result("Cc1cc(-c2csc(NC(=O)Cc3cccc(OCCCN4CCN(C)CC4)c3)c2)ccn1")
"< 5.00"

Query: // Input: COc1cccc(CC(=O)Nc2cc(-c3ccnc(C)c3)cs2)c1 . Output its pKi only.
Result: < 5.00

Query: // Input: COc1cccc(CC(=O)Nc2cc(-c3ccnc(Cl)c3)cs2)c1 . Output its pKi only.
Result: < 5.00

Query: // Input: O=C(Cc1cc2c(cc1Cl)OCO2)Nc1cc(-c2ccnc(Cl)c2)cs1 . Output its pKi only.
Result: 5.00 to 6.00

Query: // Input: Cc1cc(-c2csc(NC(=O)Cc3cccc(OCCN4CCN(C)CC4)c3)c2)ccn1 . Output its pKi only.
Result: < 5.00

---

pKi: −log10 of the molar value.
Notes on pKi obtained with ROCK I (AA 6-553) (Homo sapiens, UniProt Q13464).

Solved entries:
>>> result("CS(=O)(=O)Nc1cccc(CC(=O)Nc2nc(-c3ccnc(F)c3)cs2)c1")
"> 7.00"
>>> result("CN(C)S(=O)(=O)c1cccc(CC(=O)Nc2cc(-c3ccnc(N)c3)cs2)c1")
"6.00 to 7.00"
>>> result("CN1CCN(CCCOc2cccc(CC(=O)Nc3cc(-c4ccnc(F)c4)cs3)c2)CC1")
"> 7.00"

Query: Using ROCK I (AA 6-553) (Homo sapiens, UniProt Q13464) as the test system, report measured pKi of Cc1cc(-c2csc(NC(=O)Cc3cccc(NS(=O)(=O)N(C)C)c3)c2)ccn1 .
Result: 6.00 to 7.00
